Molecular target: IRAK-4 (Homo sapiens)
Sequence (Q9NWZ3 whole entry): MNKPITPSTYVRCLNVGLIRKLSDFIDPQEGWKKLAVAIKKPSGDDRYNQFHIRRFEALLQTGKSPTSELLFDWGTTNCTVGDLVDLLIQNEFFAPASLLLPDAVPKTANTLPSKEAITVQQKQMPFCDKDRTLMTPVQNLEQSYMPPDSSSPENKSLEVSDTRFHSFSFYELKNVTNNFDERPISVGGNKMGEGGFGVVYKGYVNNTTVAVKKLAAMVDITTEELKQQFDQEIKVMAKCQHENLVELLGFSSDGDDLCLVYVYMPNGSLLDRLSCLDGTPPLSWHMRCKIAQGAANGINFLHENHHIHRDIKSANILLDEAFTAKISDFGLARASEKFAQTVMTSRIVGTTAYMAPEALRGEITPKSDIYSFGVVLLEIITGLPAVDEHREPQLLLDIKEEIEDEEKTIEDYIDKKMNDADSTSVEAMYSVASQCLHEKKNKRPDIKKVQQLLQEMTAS
Test: IRAK-4 ELISA, PBMC degradation
Assay type: cell-based
Set-up: endogenous in cells; host or cells: PBMC
Settings: treated overnight
value-kind: DC50

{"molecule": "CC(C)Oc1cc2c(cc1NC(=O)c1cnn3cccnc13)CN(C1CCN(CCN(C)c3ccc4c(c3)C(=O)N(C3CCC(=O)NC3=O)C4=O)CC1)C2=O (stereo not shown)", "test-target": "IRAK-4 (Homo sapiens)", "DC50": "1 to 5 nM"}
{"molecule": "CC(C)Oc1cc2c(cc1NC(=O)c1cnn3cccnc13)CN(C1CCC(N(C)C3CN(c4ccc(C(=O)NC5CCC(=O)NC5=O)c(F)c4)C3)CC1)C2=O (stereo not shown)", "test-target": "IRAK-4 (Homo sapiens)", "DC50": "< 1 nM"}
{"molecule": "COc1cc(CCN2CCC(N3Cc4cc(NC(=O)c5cnn6cccnc56)c(OC(C)C)cc4C3=O)CC2)cc2c1C(=O)N(C1CCC(=O)NC1=O)C2 (stereo not shown)", "test-target": "IRAK-4 (Homo sapiens)", "DC50": "1 to 5 nM"}
{"molecule": "CN(C1CCC(n2cc3cc(NC(=O)c4cnn5cccnc45)c(OCC4CC4)cc3n2)CC1)C1CCN(c2ccc3c(c2)C(=O)N(C2CCC(=O)NC2=O)C3)CC1 (stereo not shown)", "test-target": "IRAK-4 (Homo sapiens)", "DC50": "< 1 nM"}
{"molecule": "CC(C)Oc1cc2c(cc1NC(=O)c1cnn3cccnc13)CN(C1CCN(CC3(F)CN(c4ccc5c(c4)C(=O)N(C4CCC(=O)NC4=O)C5=O)C3)CC1)C2=O (stereo not shown)", "test-target": "IRAK-4 (Homo sapiens)", "DC50": "< 1 nM"}

Reported DC50 for COc1cc(N2CC(F)(CN3CCC(n4cc5cc(NC(=O)c6cnn7cccnc67)c(OCC6CC6)cc5n4)CC3)C2)cc2c1C(=O)N(C1CCC(=O)NC1=O)C2 (stereo not shown) : what is it?
1 to 5 nM

For the molecule shown here, O=C1CCC(N2C(=O)c3ccc(N4CC(CN5CCC(N6Cc7cc(NC(=O)c8cnn9cccnc89)c(N8CCC(N9CCC9)CC8)cc7C6=O)CC5)C4)cc3C2=O)C(=O)N1 (stereo not shown) , give the reported DC50.
5 to 10 nM

Give the measured DC50 of CN(C1CN(c2ccc3c(c2)CN(C2CCC(=O)NC2=O)C3=O)C1)[C@H]1CC[C@H](n2cc3cc(NC(=O)c4cnn5cccnc45)c(OCC(F)F)cc3n2)CC1 (stereo partly shown) .
< 1 nM

I have this molecule here, CN1CC(Oc2cc3nn(C4CCN(CC5CN(c6ccc7c(c6)C(=O)N(C6CCC(=O)NC6=O)C7=O)C5)CC4)cc3cc2NC(=O)c2cnn3cccnc23)C1 (stereo not shown) , and I need its recorded DC50.
5 to 10 nM

What does the record list as DC50 for CC(C)Oc1cc2nn(C3CCN(CC4(C)CN(c5ccc6c(c5)C(=O)N(C5CCC(=O)NC5=O)C6=O)C4)CC3)cc2cc1NC(=O)c1cnn2cccnc12 (stereo not shown) ?
1 to 5 nM

Record request: DC50 value, item O=C1CCC(N2C(=O)c3ccc(N4CCC(CN5CCC(N6Cc7cc(NC(=O)c8cnn9cccnc89)c(OCC(F)F)cc7C6=O)CC5)CC4)cc3C2=O)C(=O)N1 (stereo not shown)
1 to 5 nM

Item under review: O=C1CCC(N2C(=O)c3ccc(N4CCO[C@@H](CN5CCC(n6cc7cc(NC(=O)c8cnn9cccnc89)c(OCC8CC8)cc7n6)CC5)C4)cc3C2=O)C(=O)N1 (stereo partly shown) . Reported DC50?
< 1 nM

Quick check: DC50 of O=C1CCC(N2Cc3c(ccc(N4CCC(CN5CCC(N6Cc7cc(NC(=O)c8cnn9cccnc89)c(N8CCN(C9CC(F)(F)C9)CC8)cc7C6=O)CC5)CC4)c3F)C2=O)C(=O)N1 (stereo not shown) ?
< 1 nM

Which DC50 is listed for O=C1CCC(N2C(=O)c3ccc(N4CCC(F)(CN5CCC(n6cc7cc(NC(=O)c8cnn9cccnc89)c(OCC8CC8)cc7n6)CC5)CC4)cc3C2=O)C(=O)N1 (stereo not shown) ?
5 to 10 nM

Any idea what its DC50 is? The molecule is COc1cc(N2CC(CN3CCC(n4cc5cc(NC(=O)c6cnn7cccnc67)c(OCC6CC6)cc5n4)CC3)C2)cc2c1C(=O)N(C1CCC(=O)NC1=O)C2=O (stereo not shown)
< 1 nM

Returns the measured DC50 for the input molecule. Input: O=C1CCC(N2Cc3ccc(N4CCC(CN5CCC(N6Cc7cc(NC(=O)c8cnn9cccnc89)c(N8CCC(N9CCC9)CC8)cc7C6=O)CC5)CC4)cc3C2=O)C(=O)N1 (stereo not shown)
< 1 nM

Quick one: DC50 of CC(C)Oc1cc2c(cc1NC(=O)c1cnn3cccnc13)CN(C1CCN(C[C@@H]3CCN(c4ccc5c(c4)C(=O)N(C4CCC(=O)NC4=O)C5=O)C3)CC1)C2=O (stereo partly shown) ?
1 to 5 nM

What value of measured DC50 is listed for CC(C)Oc1cc2nn(C[C@@H](F)C3CCN(CC4(F)CN(c5ccc6c(c5)C(=O)N(C5CCC(=O)NC5=O)C6=O)C4)CC3)cc2cc1NC(=O)c1cnn2cccnc12 (stereo partly shown) ?
1 to 5 nM
